# System: Escherichia coli
# experiment description: Antibacterial activity against Escherichia coli ATCC 25922 assessed as growth inhibition after 12 hr by CLSI broth microdilution method
# Format: functional
# condition details: ATCC 25922, 12 h
Below is a list of entries, each paired with its recorded MIC value.

Below, each entry is followed by its recorded MIC result.
[
  {
    "compound": "O=C(O)c1ccc(/C=C2/S/C(=N\\c3ccc(F)cc3)N(c3ccc(F)cc3)C2=O)cc1",
    "MIC": "> 200 µM"
  },
  {
    "compound": "O=C(O)c1ccc(/C=C2/S/C(=N\\c3ccc(Cl)cc3)N(c3ccc(Cl)cc3)C2=O)cc1",
    "MIC": "> 200 µM"
  },
  {
    "compound": "CCc1ccccc1/N=C1\\S/C(=C/c2ccc(OCC(=O)O)c(OC)c2)C(=O)N1c1ccccc1CC",
    "MIC": "> 200 µM"
  }
]

Problem: Name the reported MIC value associated with the compound CC1(C)S[C@@H]2[C@H](NC(=O)[C@H](N)c3ccccc3)C(=O)N2[C@H]1C(=O)O [AMPICILLIN]
Result: > 200 µM

Problem: Item: "O=C(O)COc1cccc(/C=C2/S/C(=N\c3ccc(Cl)cc3)N(c3ccc(Cl)cc3)C2=O)c1"
Result: > 200 µM

Problem: How about "COc1cc(/C=C2/S/C(=N\c3ccc(Cl)cc3)N(c3ccc(Cl)cc3)C2=O)ccc1OCC(=O)O" ?
Result: > 200 µM

Problem: Now the compound "O=C(O)COc1ccc(/C=C2/S/C(=N\c3ccc(Cl)cc3)N(c3ccc(Cl)cc3)C2=O)cc1"
Result: > 200 µM

Problem: # repeat for "O=C(O)c1ccc(/C=C2/S/C(=N\c3ccc(Br)cc3)N(c3ccc(Br)cc3)C2=O)cc1"
Result: > 200 µM

Problem: Another compound to look at: "O=C(O)COc1ccc(/C=C2/S/C(=N\c3ccccc3)N(c3ccccc3)C2=O)cc1"
Result: > 200 µM

* * *

# System: Staphylococcus epidermidis
# experiment description: Antibacterial activity against methicillin-resistant Staphylococcus epidermidis 8311 clinical isolate assessed as growth inhibition after 12 hr by CLSI broth microdilution method
# Format: functional
# condition details: Staphylococcus epidermidis, 8311, 12 h
result type: MIC (µM)
Just the number please, in µM, no unit attached.

Some entries whose results are on file:
[
  {
    "query smiles": "COc1cccc(OC)c1C(=O)N[C@@H]1C(=O)N2[C@@H]1SC(C)(C)[C@@H]2C(=O)O",
    "reading unit": "µM",
    "MIC": 65.7
  },
  {
    "query smiles": "O=C(O)COc1ccc(/C=C2/S/C(=N\\c3ccc(Cl)cc3)N(c3ccc(Cl)cc3)C2=O)cc1",
    "reading unit": "µM",
    "MIC": 1.57
  },
  {
    "query smiles": "O=C(O)COc1ccc(/C=C2/S/C(=N\\c3ccc(Br)cc3)N(c3ccc(Br)cc3)C2=O)cc1",
    "reading unit": "µM",
    "MIC": 3.13
  },
  {
    "query smiles": "O=C(O)COc1ccc(/C=C2/S/C(=N\\c3cccc(Cl)c3)N(c3cccc(Cl)c3)C2=O)cc1",
    "reading unit": "µM",
    "MIC": 3.13
  },
  {
    "query smiles": "O=C(O)COc1ccc(/C=C2/S/C(=N\\c3ccccc3Cl)N(c3ccccc3Cl)C2=O)cc1",
    "reading unit": "µM",
    "MIC": 3.13
  },
  {
    "query smiles": "C[C@H]1COc2c(N3CCN(C)CC3)c(F)cc3c(=O)c(C(=O)O)cn1c23",
    "reading unit": "µM",
    "MIC": 22.1
  }
]

In the following, a different molecule is considered.
Problem: Please report the recorded MIC for "O=C(O)c1ccc(/C=C2/S/C(=N\c3ccc(Cl)cc3)N(c3ccc(Cl)cc3)C2=O)cc1" .
Result: 3.13
